# credit: patent US9139596B2

Assay: Stability in mouse plasma (Table 4)
measured quantity: half-life (h)

smiles entry	measured quantity	value
O=C1Nc2cccc3c4c(cc(c23)O1)N(C(=O)c1cc2cc(NC(=O)c3cc5ccccc5[nH]3)ccc2[nH]1)C[C@H]4CCl	half-life	12

---

Experiment: Solvolysis of 21
Assay type: physicochemical
Settings: CH3OH / aqueous citrate-phosphate buffer, pH 1 buffer (: 0.2 M Na2HPO4: H2O 4:1:20), 25° C., UV 255 nm, read-out: solvolysis t1/2 (converted)

molecule	half-life [min]
CC(C)(C)OC(=O)N1CC2CC23C1=CC(=O)c1c(N)cccc13 (stereo not shown)	511

---

System: L1210 murine leukemia cell line
Experiment: In vitro cytotoxic activity (cell growth inhibition), L1210
Format: cell-based
Settings: L1210, racemic parent drug; read-out: IC50

compound	IC50 / nM
Nc1cccc2c1C(=O)C=C1N(C(=O)c3cc4cc(NC(=O)c5cc6ccccc6[nH]5)ccc4[nH]3)CC3CC123 (stereo not shown) [Compound 20]	0.21

---

Assay: Stability in pH 7.0 phosphate buffer
Conditions: buffer, pH 7, t1/2, pH 7.0 phosphate buffer
measured quantity: half-life

smiles entry	measured quantity	value
O=C1Nc2cccc3c4c(cc(c23)O1)N(C(=O)c1cc2cc(NC(=O)c3cc5ccccc5[nH]3)ccc2[nH]1)C[C@H]4CCl	half-life	> 28 days

---

Assay: Stability in human plasma
Settings: human, plasma

compound	half-life
O=C1Nc2cccc3c4c(cc(c23)O1)N(C(=O)c1cc2cc(NC(=O)c3cc5ccccc5[nH]3)ccc2[nH]1)C[C@H]4CCl [Compound 6]	> 48 h

---

Test system: L1210 murine leukemia cell line
Assay: In vitro cytotoxic activity (cell growth inhibition), L1210
Type: cell-based
Conditions: natural (S)-enantiomer; Table 4; read-out: In vitro IC50 L1210 natural

compound	experimental system	IC50, nM
O=C(Nc1ccc2[nH]c(C(=O)N3C[C@@H](CCl)c4c3cc(O)c3ccccc43)cc2c1)c1cc2ccccc2[nH]1 [Compound 4, seco-CBI-indole2, reference compound]	L1210 murine leukemia cell line	0.03

---

Test: Solvolysis of 21
Assay type: physicochemical
Details: CH3OH / aqueous citrate-phosphate buffer, pH 2 buffer (1.0 M citric acid: 0.2 M Na2HPO4: H2O 4:1:20), 25° C., UV 255 nm, read-out: solvolysis t1/2 (converted)

compound	output unit	half-life
CC(C)(C)OC(=O)N1CC2CC23C1=CC(=O)c1c(N)cccc13 (stereo not shown) [Compound 21]	h	40.3

---

This section presents molecules with their documented pIC50 values.
System: L1210 murine leukemia cell line
Test: In vitro cytotoxic activity (cell growth inhibition), L1210
Format: cell-based
Conditions: Mus musculus, L1210, read-out: In vitro IC50 L1210 unnatural, unnatural (R)-enantiomer; Table 4
pIC50: −log10 of the molar value.

molecule	experimental system	pIC50
N=C1Nc2cccc3c4c(cc(c23)O1)N(C(=O)c1cc2cc(NC(=O)c3cc5ccccc5[nH]3)ccc2[nH]1)C[C@H]4CCl	L1210 murine leukemia cell line	7.19
O=C(Nc1ccc2[nH]c(C(=O)N3C[C@@H](CCl)c4c3cc3c5c(cccc45)NC(=S)O3)cc2c1)c1cc2ccccc2[nH]1	L1210 murine leukemia cell line	7.21
COC(=O)c1cc2c([nH]1)C(=O)C=C1N(C(=O)c3cc4cc(OC)c(OC)c(OC)c4[nH]3)CC3CC123 (stereo not drawn) [Compound 1, Duocarmycin SA, reference compound]	L1210 murine leukemia cell line	10.00
